Molecular target: 5-hydroxytryptamine receptor 7 (Homo sapiens, UniProt P34969)
Sequence (P34969 whole entry): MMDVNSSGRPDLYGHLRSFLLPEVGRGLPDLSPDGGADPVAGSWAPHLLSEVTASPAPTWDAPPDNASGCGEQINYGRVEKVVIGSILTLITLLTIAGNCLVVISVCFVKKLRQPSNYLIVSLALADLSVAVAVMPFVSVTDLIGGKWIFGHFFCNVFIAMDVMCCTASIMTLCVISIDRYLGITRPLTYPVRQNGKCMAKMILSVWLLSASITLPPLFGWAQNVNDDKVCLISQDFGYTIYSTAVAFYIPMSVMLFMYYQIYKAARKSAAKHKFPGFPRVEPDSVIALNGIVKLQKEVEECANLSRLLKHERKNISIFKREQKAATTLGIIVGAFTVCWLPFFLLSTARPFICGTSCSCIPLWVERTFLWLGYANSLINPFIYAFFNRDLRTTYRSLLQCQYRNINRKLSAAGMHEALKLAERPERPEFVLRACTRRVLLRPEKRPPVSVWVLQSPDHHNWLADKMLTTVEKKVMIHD
Please assign label 0 whenever Ki is at or above 4 µM, and label 1 whenever it is below.

Query: I wonder whether CC(Oc1ccccc1Cl)c1nc(N)nc(N2CCN(C)CC2)n1 (stereo not given) has Ki below 4 µM. Can you tell?
Response: label 0

Query: Does this compound meet the criterion Ki < 4 µM? CN1CCN(c2nc(N)nc(COc3ccccc3)n2)CC1
Response: label 0

Query: Take the compound CC(Sc1ccccc1Cl)c1nc(N)nc(N2CCN(C)CC2)n1 (stereo not given) and say whether its Ki is less than 4 µM.
Response: label 0

Query: API: query returns whether the compound falls strictly under 4 µM in Ki. Query: CN1CCN(c2nc(N)nc(COc3ccc(Cl)cc3Cl)n2)CC1
Response: label 1

Query: Hello, is Ki of the following compound strictly smaller than 4 µM? Cc1ccccc1OCc1nc(N)nc(N2CCN(C)CC2)n1
Response: label 1

###

As an illustration, consider measured pKi for compounds on 5-hydroxytryptamine receptor 6 (Homo sapiens).
Sequence (P50406 whole entry): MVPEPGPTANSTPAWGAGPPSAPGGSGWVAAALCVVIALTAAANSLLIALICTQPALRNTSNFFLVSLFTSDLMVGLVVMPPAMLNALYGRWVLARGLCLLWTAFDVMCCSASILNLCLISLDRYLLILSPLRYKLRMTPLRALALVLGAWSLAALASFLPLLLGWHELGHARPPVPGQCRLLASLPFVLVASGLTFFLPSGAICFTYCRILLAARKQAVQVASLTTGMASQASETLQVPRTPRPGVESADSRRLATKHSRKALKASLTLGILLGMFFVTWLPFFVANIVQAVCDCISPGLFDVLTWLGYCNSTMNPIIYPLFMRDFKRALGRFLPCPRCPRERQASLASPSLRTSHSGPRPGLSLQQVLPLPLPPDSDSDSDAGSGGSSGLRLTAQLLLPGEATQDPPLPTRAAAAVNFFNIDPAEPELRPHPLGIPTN
Quick note: pKi values are minus log10 of concentrations in mol/L.

Query: Please look up its pKi: CN1CCN(c2nc(N)nc(CS(=O)(=O)c3ccccc3Cl)n2)CC1
Response: 5.45

Query: I am curious: what pKi value has been reported for CN1CCN(c2nc(N)nc(COc3ccc(Cl)cc3Cl)n2)CC1 ?
Response: 6.89

Query: I have this compound here, Cc1cccc(OCc2nc(N)nc(N3CCN(C)CC3)n2)c1 , and I need its recorded pKi.
Response: 6.68

Query: Request the reported pKi associated with Cc1cc(Cl)ccc1OCc1nc(N)nc(N2CCN(C)CC2)n1
Response: 6.04

Query: Any idea what pKi was measured for Cc1cc(OCc2nc(N)nc(N3CCN(C)CC3)n2)ccc1Cl ?
Response: 6.45

Query: Recorded pKi of CN1CCN(c2nc(N)nc(COc3cccc(Cl)c3)n2)CC1 , please.
Response: 6.83

Query: May I ask what pKi has been recorded for Cc1ccccc1OCc1nc(N)nc(N2CCN(C)CC2)n1 ?
Response: 7.06

Query: Would you kindly share the measured pKi for CC(Oc1ccccc1Cl)c1nc(N)nc(N2CCN(C)CC2)n1 (stereo not drawn) ?
Response: 7.64

###

Molecular target: 5-hydroxytryptamine receptor 6 (Homo sapiens)
Experiment: Agonist activity at recombinant human 5HT6 receptor expressed in CHOK1 cells co-expressing Galpha16/aequorin assessed as increase in calcium mobilization and measured for 60 secs in presence of coelenterazine by luminescence assay relative to control
Type: functional, cell-based
RECORDED_METRIC: Emax (%)
Field: numeric (%). Do not append units.

Query: Sample Cc1ccc(C(C)C)c(OCc2nc(N)nc(N3CCN(C)CC3)n2)c1 — what was its Emax?
Response: 1

Query: Could you share which Emax value was measured for O=S(=O)(c1ccccc1)c1cnc2c(N3CCNCC3)cccc2c1 ?
Response: 2

Query: Fill in: Emax of CC(Oc1ccccc1Cl)c1nc(N)nc(N2CCN(C)CC2)n1 (stereo not given) is ___
Response: 1

Query: Requested field: Emax. Item: CC(Sc1ccccc1Cl)c1nc(N)nc(N2CCN(C)CC2)n1 (stereo not given)
Response: 1

Query: Need Emax, item CN1CCN2c3ccccc3Cc3ccccc3C2C1 (stereo not given)
Response: 1

// provenance: ChEMBL document CHEMBL4364280
